System: MS2 coat protein
Experiment: apparent KD of MS2 coat protein; designed switch direction (-1 OFF switch, 1 ON switch): -1; higher = weaker reporter binding
Details: Eterna round: R95; input ligand: microRNA oligo, concentration not stated
Entry class follows apparent KD of MS2 coat protein: category 1: < 90 nM; category 2: ≥ 90 nM and < 200 nM; category 3: ≥ 200 nM

Recorded results for 8 sequences are shown here.
1. CUUUUGUGAGGAUAUCAGUAGUAAUACAAUAGUAUUACUACUGAGAAGGCACAUGAGGAUCACCCAUGUUUCUC [Ex4 344 Omei mod 3] (puzzle: Exclusion 4) : category 1
2. CUCAAGUGAGGAUAUAUACUUCCAUCAUUUGAGAUAGAAGUAUAGAAGGCACAUGAGGAUCACCCAUGUAUAAC [Lamaanan] (puzzle: Exclusion 4) : category 2
3. ACAAGCUUUUUGUUCGUCUUAUACACUCCUAAUAAGACAACAUGAGGAUCACCCAUGUAACAAACACGAACUCAUGU [Sesor Array 7 - Jieux - Sensor v3, turn-off variant 2] (puzzle: Sensor v3, turn-off variant 2) : category 3
4. UUAUACGUUGAGGAUAUGCGACUUAGUAUAGUUGUAGAAGGCGAUACAUGAGGAUCACCCAUGUUUAUGGGCAU [LRO-Ex6-09] (puzzle: Exclusion 6) : category 3
5. UUUAAUUUUUUUUUUUUACAAGCUUUUUGCUCGUCUUAUACAUGAGGAUCACCCAUGUAAAUGGGAGGUAAAUUAUC [JMF 71] (puzzle: Sensor v3, turn-off variant 2) : category 2
6. UUUAAUUUUUUUUUUUUACAAGCUUUUUGCUCGUCUUAUACAUGAGGAUCACCCAUGUGAAUGGGAAAUGAAUUAUC [JMF 96] (puzzle: Sensor v3, turn-off variant 2) : category 3
7. UACGAGUCAGGAUAUUGGGCAAUAGCAUUACGGAACGAUCACAAGAAGGGACAUGAGGAUCACCCAUGUUAUAU [Candy Rainbow 3] (puzzle: Exclusion 4) : category 1
8. CUGAGCAGACGGAGAUCCAACAUGAGGAUCACCCAUGUCUCAUAAGCUUUUUGCUCAUCUUAUUGUACCUUGGUGCA [Mat - Sensor v3 - turn-off var 1 - JL Mod - D21] (puzzle: Sensor v3, turn-off variant 1) : category 1

Turning now to a further sequence:
Class (by measured apparent KD of MS2 coat protein) for UAUUAAACAUAGGAUAUCGAAUAAAUCAUUUAACGAGAAGGAUGAACAUGAGGAUCACCCAUGUGGUAUCAUGG [Mat - Exclusion 6 - JL Mod - D14] (puzzle: Exclusion 6)
category 3
